Assay: yeast display, Sf9 membrane polyspecificity reagent, FACS + sequencing; frameworks hold sequencing errors

ordered-residues: QVQLVESGGGLVQAGGRLRLSCAAAGSIFSYTMGWYRQAPWKERELVAAIRRRGGSTYYADSVKGRFTISRDNAKNTVYLQMTSLKPEDTAVYYCAADGYQYRHRRFFYWGQGTQVTVSS
polyreactivity (PSR sort gate): high polyreactivity
//
ordered-residues: QVQLVESGGGLVQAGGSLRLSCAASGFIFDYYAMGWYRQAPGKERELVAGISRRGGSTYYADSVKGRFTISRDNAKNTVYLQMNSLKPEDTAVYYCNADAWRKVPHPGTGGRDYWGQGTQVTVSS
polyreactivity (PSR sort gate): high polyreactivity
//
ordered-residues: QVQLVESGGGLVQAGGSLRLSCAASGITFPKYAMGWYRQAPGKERELVAAITKSGGSTYYADSVKGRFTISRDNAKNTVYLQMNSLKPEDTAVYYCAVVSRGITKYDYWGQGTQVTVSS
polyreactivity (PSR sort gate): high polyreactivity

###

Experiment: yeast display, Sf9 membrane polyspecificity reagent, FACS + sequencing; frameworks hold sequencing errors
assay-readout: polyreactivity (PSR sort gate)

Completed entries (count: 10):
ordered-residues: QVQLQESGGGLEQAGGSLRLSCAASGNISSWYPMGWYRQAPGKEREFVATIAPVATTNYADSVKGRFTISRDYAKITVYLQMNSLKPEDTAVNYCAAGPDNNDFYSYWGQGTQVTVSS
result: low polyreactivity
//
ordered-residues: QVQLVESGGGLVQAGGSLRLSCAASGITSDQNAMGWYRQAPGKERELVAAITRGGTTYYADSVKGRFTISRDNAKNTVYLQMNSLKPEDTAVYYCNARYYFRKQVRPFHIRYDYWGQGTQVTVSS
result: low polyreactivity
//
ordered-residues: QVQLVESGGGLVQAGGSLRLSCAASGRTFYNYAMGWYRQAPGKERELVAAITRGGSTYYADSVKGRFTISRDNAKNTVYLQMNSLKPEDTAVYYCNAYYYIPFEGRGYSKLDYWGQGTQVTVSS
result: high polyreactivity
//
ordered-residues: QVQLVESGGGLVQAGGSLRLSCAASGSIFPYYDMGWYRQAPGKERELVAAITSSGSTFYADSVKGRFTISRDNAKNTVYLQMNSLKPEVTAVYSCNTRDIRVRPYDYWGQGTQVTVSS
result: low polyreactivity
//
ordered-residues: QVQLVESGGGLVQAGGSLRLSCAASGFIFSHYAMGWYRQAPGKERELVAAISWSGDSTYYADSVKGRFTLSRDNAKNTVDLQMNSLKPEDTAVYYCNAVYFWVRYLKFLEFGYWGQGTQVTVSS
result: high polyreactivity
//
ordered-residues: QVQLVESGGGLVQAGGTLRLSCAASGSTFRGYAMGWYRQAPGKERELVAAIRRAGSTNYAESVKGRFTISRDNAKNTVYLQMNSLKPEDTAVYYFADSKCLWYGASVSQKKAGMDSWGQGTQVTVSS
result: low polyreactivity
//
ordered-residues: QVQLVESGGGLVQAGGSLRLSCAASGGIFYLYAMGWYRQAPGKERELVAAITWSADSTYYADSVKGRFTISRDNAKYTVYLQMNSLKPEDTAVYYCNADVAWQYWNGWSWDIYDYWGQGTQVTVSS
result: low polyreactivity
//
ordered-residues: QVQLVESGGGLVQAGGSLRLSCAASGSTFYQNAMGWYRQAPGKERELVAAISSSGRTYYADSVKGRFTISRDNAKNTVYLQMNSLKPEDTAVYYCAVGAYGSLYSIRVAYGSMDYWGQGTQVTVSS
result: high polyreactivity
//
ordered-residues: QVQLVESGAGLVQAGGSLRLSCAASGFIFYIYAMGWYRQAPGKEREFVAVISSSGGITYYADSVKGRFTISRDNAKNTFYLQMNSLKPEDTAVYYCARDTEGKYVGYGRGGYWGQGTQVTVSS
result: low polyreactivity
//
ordered-residues: QVQLVESGGGLVQAGGSLRLSCAASGLTFLYYSMGWYRQAPGKERELVAAISTRGGSTYYADSVKGRFTISRDNAKNTVYLQMNSLKPEDTAVYYCNAKLIVTPGRGDYWGQGTQVSVSS
result: high polyreactivity

Give its polyreactivity (PSR sort gate) value. Item: QVQLVESGGGLVQSGGSLRLSCAASGYTFLEYTMGWYRQAPGKERELVAAITSGGSTKYADSVKGRFTISRDNAKNTVYLQMNSLKPEDTAVYYCNARHYSREFDYWGQGTQVTVSS
low polyreactivity
